Reported melting point values for the following molecules.

CC(=O)N(CCCCCC(=O)O)C(c1ccccc1)c1ccccc1 : 119 to 120 °C
COC(=O)c1nc(-c2cnco2)cc(N)c1Cl : 166 to 170 °C
C=Cc1ncc2[nH]c3cccc(OCc4ccccc4)c3c2c1COC : 183 to 185 °C
CCCC(=O)c1cnc2c(OC)cccc2c1Nc1ccc(O)cc1C : 252 to 253 °C
O=C(Nc1ccc2nc(CN3CCOCC3)ccc2c1)c1ccc(-c2ccccc2)cc1 : 214 to 215 °C
O=[N+]([O-])c1ccc(OCCc2c[nH]cn2)cc1 : 197 to 200 °C

Lookup result for `Cc1cc(C)n(C(=O)CNS(=O)(=O)c2ccc(Cl)cc2)n1` ; measured melting point: 135 to 136 °C

Lookup result for CC(C)CCCC(C)Cc1cncn1Cc1ccccc1 (stereo unspecified) ; measured melting point: 61 to 62 °C

Lookup result for `COc1ccc(C(=O)Nc2ccc3ccc(OC)nc3n2)cc1` ; measured melting point: 115 °C

Lookup result for `COc1ccc(Cc2ccc3nc(N)nc(N)c3c2)cc1OC` ; measured melting point: 215 to 217 °C

Lookup result for `N#CCC(CC#N)c1cccc(Cl)c1Cl` ; measured melting point: 76 to 78 °C

Data provenance: a melting point compilation (Tetko et al.; mined from patent text by program, amines drawn as free bases though some values may be those of a salt)
